System: ERBB4
Details: concentration: 1 μM, replicates: in singlicate; n = 1
Listed here: items and their measured %Inh.
Form entry: value (%) — number only.

Example entries begin here.
Cc1c(Cn2c(C)nn3c(=O)cc(N4CCO[C@H](C)C4)nc23)cccc1C(F)(F)F = 32
COc1ccc(-c2coc3ccc(-c4nnc(SCc5cccc(C#N)c5)o4)cc23)cc1 = 0
COc1cc2ncn(-c3cc(OCCCc4ccccc4)c(C(N)=O)s3)c2cc1OC = 0
Nc1n[nH]c2nnc(-c3ccccc3)c(-c3ccccc3)c12 = 32
CCC(=O)c1c(-c2ccccc2)c2cc(Cl)ccc2c(=O)n1Cc1cc(S(C)(=O)=O)n(CCC(C)(C)O)n1 = 20
Cc1cc(Nc2nc(-c3cccc(C)n3)nc3ccccc23)ccn1 = 0
CCCNC(=O)Nc1ccc(Oc2ncnc3ccn(C)c23)cc1 = 4
COc1cc2ncn(-c3cc(OCc4ccncc4Br)c(C(N)=O)s3)c2cc1OC = 0

Now look at this entry.
stdin: Need %Inh, item Fc1cccc(CSc2nnc(-c3ccc4c(c3)CCO4)o2)c1
stdout: 0

###

Test system: CIT
Details: concentration: 1 μM, replicates: in singlicate; n = 1
Definition: the class of an entry is the range in low range: < 1%; mid range: ≥ 1% and < 20%; high range: ≥ 20% that contains its %Inh.

Past entries and their recorded results:
COc1ccc(-c2coc3ccc(-c4nnc(SCc5cccc(C#N)c5)o4)cc23)cc1 = mid range
CCS(=O)(=O)c1ccc(OC)c(Nc2ncc(-c3ccc(F)cc3)o2)c1.Cl = high range
CCC(=O)c1c(-c2ccccc2)c2cc(Cl)ccc2c(=O)n1Cc1cc(S(C)(=O)=O)n(CC(F)F)n1 = low range

stdin: Class? Entry: CCC(=O)c1c(-c2ccccc2)c2cc(Cl)ccc2c(=O)n1Cc1ccc(C(=O)O)cc1
stdout: low range

stdin: Class? Entry: Cc1nc(N(C)[C@H]2CN(C(=O)CC#N)CC[C@H]2C)c2cc[nH]c2n1
stdout: low range

stdin: Class? Entry: COC(=O)c1c(-c2ccccc2)c2cc(C)ccc2c(=O)n1Cc1ccccc1
stdout: low range

stdin: Class? Entry: COc1cc(OC)cc(-c2cc3cnc(N)nc3nc2NC(=O)NC(C)(C)C)c1
stdout: low range

stdin: Class? Entry: Nc1nccc2scc(-c3ccc4c(c3)CCN4C(=O)Cc3ccccc3)c12
stdout: high range

stdin: Class? Entry: Nc1nc(N)c2nc(-c3ccccc3)[nH]c2n1
stdout: mid range

stdin: Class? Entry: Cc1ccc(Oc2ccc(Nc3ncnc4cc[nH]c34)cc2C)cn1
stdout: high range

stdin: Class? Entry: FC(F)(F)c1ccc(-c2ncn(CCCN3CCOCC3)c2-c2ccncc2)cc1
stdout: low range

stdin: Class? Entry: COc1cc(Nc2ccnc3ccc(C(F)(F)F)cc23)cc(OC)c1OC
stdout: mid range

stdin: Class? Entry: Cl.NS(=O)(=O)c1cccc(Nc2cc(-c3ccc(F)cc3)n[nH]2)c1
stdout: mid range

stdin: Class? Entry: COc1cc2ncn(-c3cc(OCc4ccncc4Br)c(C(N)=O)s3)c2cc1OC
stdout: mid range

###

Tested on: FGFR3;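 also: kd values determined as follow-up on hits from a single-replicate KINOMEscan panel screen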
ASSAY METRIC: Kd (nM)
Form entry: value (nM) — number only.

stdin: What reported Kd corresponds to COc1cc(OC)cc(-c2cc3cnc(N)nc3nc2NC(=O)NC(C)(C)C)c1 on FGFR3?
stdout: 110
